Molecular target: Amine oxidase [flavin-containing] A (Homo sapiens, UniProt P21397)
Sequence (P21397 whole entry): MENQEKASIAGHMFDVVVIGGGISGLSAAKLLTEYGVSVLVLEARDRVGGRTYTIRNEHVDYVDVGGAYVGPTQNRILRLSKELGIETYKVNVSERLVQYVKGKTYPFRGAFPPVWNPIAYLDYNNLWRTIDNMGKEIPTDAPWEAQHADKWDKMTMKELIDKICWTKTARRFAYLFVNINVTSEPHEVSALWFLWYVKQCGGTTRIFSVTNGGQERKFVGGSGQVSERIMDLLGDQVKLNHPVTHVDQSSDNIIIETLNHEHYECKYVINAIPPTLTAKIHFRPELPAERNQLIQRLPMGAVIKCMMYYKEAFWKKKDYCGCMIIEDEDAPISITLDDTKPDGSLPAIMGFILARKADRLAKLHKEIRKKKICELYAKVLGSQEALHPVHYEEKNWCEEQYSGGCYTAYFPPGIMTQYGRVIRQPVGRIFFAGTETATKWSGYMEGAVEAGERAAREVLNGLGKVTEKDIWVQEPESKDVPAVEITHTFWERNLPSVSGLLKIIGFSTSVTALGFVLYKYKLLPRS
pIC50: −log10 of the molar value.
OBSERVABLE: pIC50

COMPOUND | MEASURED
Cc1ccc([C@@]2(F)C[C@H]2N)cc1 (relative stereo) | 5.17
NNC(N)=O [HYDRAZINECARBOXAMIDE] | 5.17

Reference source for all entries: ChEMBL document CHEMBL1138842
